From: patent US7118895B2

- Test system: Crude diglycosidase
- assay protocol: Examination of substrate concentration in the conversion into isoflavone aglycons by diglycosidase using soybean materials;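 further: percent of the isoflavone family total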
- Assay type: biochemical, Penicillium multicolor IAM7153
- study conditions: soymilk, substrate concentration 20%, heat treatment of enzyme no, reaction time 6 h
measured endpoint: Decomposition efficiency: ratio of each glycoside/aglycon within its isoflavone family

INSERT INTO measurements (structure_string, result) VALUES
  ('COc1cc2c(=O)c(-c3ccc(O)cc3)coc2cc1O[C@@H]1O[C@H](COC(=O)CC(=O)O)[C@@H](O)[C@H](O)[C@H]1O', '5.9%'),
  ('COc1cc2c(=O)c(-c3ccc(O)cc3)coc2cc1O', '94.1%'),
  ('O=c1c(-c2ccc(O)cc2)coc2cc(O[C@@H]3O[C@H](CO)[C@@H](O)[C@H](O)[C@H]3O)ccc12', 'not detected'),
  ('O=C(O)CC(=O)OC[C@H]1O[C@@H](Oc2ccc3c(=O)c(-c4ccc(O)cc4)coc3c2)[C@H](O)[C@@H](O)[C@@H]1O', '16.4%'),
  ('CC(=O)OC[C@H]1O[C@@H](Oc2cc(O)c3c(=O)c(-c4ccc(O)cc4)coc3c2)[C@H](O)[C@@H](O)[C@@H]1O', 'not detected'),
  ('CC(=O)OC[C@H]1O[C@@H](Oc2ccc3c(=O)c(-c4ccc(O)cc4)coc3c2)[C@H](O)[C@@H](O)[C@@H]1O', 'not detected'),
  ('O=C(O)CC(=O)OC[C@H]1O[C@@H](Oc2cc(O)c3c(=O)c(-c4ccc(O)cc4)coc3c2)[C@H](O)[C@@H](O)[C@@H]1O', '10.7%'),
  ('O=c1c(-c2ccc(O)cc2)coc2cc(O[C@@H]3O[C@H](CO)[C@@H](O)[C@H](O)[C@H]3O)cc(O)c12', 'not detected'),
  ('COc1cc2c(=O)c(-c3ccc(O)cc3)coc2cc1O[C@@H]1O[C@H](CO)[C@@H](O)[C@H](O)[C@H]1O', 'not detected'),
  ('COc1cc2c(=O)c(-c3ccc(O)cc3)coc2cc1O[C@@H]1O[C@H](COC(C)=O)[C@@H](O)[C@H](O)[C@H]1O', 'not detected');

====

- Tested on: Crude diglycosidase
- assay protocol: Examination of pH in the conversion into isoflavone aglycons by diglycosidase using soybean materials
- Assay type: biochemical, Penicillium multicolor IAM7153
- study conditions: pH3.4; heat treatment of enzyme: yes; reaction time 6 h
measured endpoint: Decomposition efficiency of glycitin family in defatted soybean

INSERT INTO results (compound, result) VALUES
  ('COc1cc2c(=O)c(-c3ccc(O)cc3)coc2cc1O[C@@H]1O[C@H](COC(=O)CC(=O)O)[C@@H](O)[C@H](O)[C@H]1O [malonylglycitin, 6″-O-malonylglycitin]', '100.0%'),
  ('COc1cc2c(=O)c(-c3ccc(O)cc3)coc2cc1O[C@@H]1O[C@H](COC(C)=O)[C@@H](O)[C@H](O)[C@H]1O [acetylglycitin, 6″-O-acetylglycitin]', 'not detected'),
  ('COc1cc2c(=O)c(-c3ccc(O)cc3)coc2cc1O[C@@H]1O[C@H](CO)[C@@H](O)[C@H](O)[C@H]1O [glycitin]', 'not detected'),
  ('COc1cc2c(=O)c(-c3ccc(O)cc3)coc2cc1O [glycitein]', 'not detected');

====

- Tested on: Crude diglycosidase
- assay protocol: Examination of temperature in the conversion into isoflavone aglycons by diglycosidase using soybean materials
- Assay type: biochemical, Penicillium multicolor IAM7153
- study conditions: 30 °C; heat treatment of enzyme: no; 1 h
measured endpoint: Decomposition efficiency of glycitin family in concentrated soybean protein (%)

INSERT INTO measurements (structure_string, system, readout_number) VALUES
  ('COc1cc2c(=O)c(-c3ccc(O)cc3)coc2cc1O[C@@H]1O[C@H](COC(=O)CC(=O)O)[C@@H](O)[C@H](O)[C@H]1O', 'Crude diglycosidase', 0.5),
  ('COc1cc2c(=O)c(-c3ccc(O)cc3)coc2cc1O', 'Crude diglycosidase', 17.5),
  ('COc1cc2c(=O)c(-c3ccc(O)cc3)coc2cc1O[C@@H]1O[C@H](CO)[C@@H](O)[C@H](O)[C@H]1O', 'Crude diglycosidase', 47.1);

====

- Test system: Crude diglycosidase
- assay protocol: Examination of temperature in the conversion into isoflavone aglycons by diglycosidase using soybean materials
- Format: biochemical, Penicillium multicolor IAM7153
- study conditions: 30 °C; heat treatment of enzyme: yes; 6 h
measured endpoint: Decomposition efficiency of glycitin family in concentrated soybean protein (%)

INSERT INTO measurements (structure_string, readout_number) VALUES
  ('COc1cc2c(=O)c(-c3ccc(O)cc3)coc2cc1O', 11.3),
  ('COc1cc2c(=O)c(-c3ccc(O)cc3)coc2cc1O[C@@H]1O[C@H](COC(C)=O)[C@@H](O)[C@H](O)[C@H]1O', 35.4),
  ('COc1cc2c(=O)c(-c3ccc(O)cc3)coc2cc1O[C@@H]1O[C@H](COC(=O)CC(=O)O)[C@@H](O)[C@H](O)[C@H]1O', 0.4);

====

- System: Crude diglycosidase
- assay protocol: Examination of substrate concentration in the conversion into isoflavone aglycons by diglycosidase using soybean materials;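 further: percent of the isoflavone family total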
- Assay type: biochemical, Penicillium multicolor IAM7153
- study conditions: concentrated soybean protein, substrate concentration 5%, heat treatment of enzyme no, reaction time 6 h
measured endpoint: Decomposition efficiency: ratio of each glycoside/aglycon within its isoflavone family

INSERT INTO assay_data (structure_string, result) VALUES
  ('O=c1c(-c2ccc(O)cc2)coc2cc(O[C@@H]3O[C@H](CO)[C@@H](O)[C@H](O)[C@H]3O)cc(O)c12', 'not detected'),
  ('O=c1c(-c2ccc(O)cc2)coc2cc(O[C@@H]3O[C@H](CO)[C@@H](O)[C@H](O)[C@H]3O)ccc12', 'not detected'),
  ('O=C(O)CC(=O)OC[C@H]1O[C@@H](Oc2ccc3c(=O)c(-c4ccc(O)cc4)coc3c2)[C@H](O)[C@@H](O)[C@@H]1O', 'not detected');

====

- Test system: Crude diglycosidase
- assay protocol: Examination of substrate concentration in the conversion into isoflavone aglycons by diglycosidase using soybean materials;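 further: percent of the isoflavone family total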
- Type: biochemical, Penicillium multicolor IAM7153
- study conditions: concentrated soybean protein, substrate concentration 2%, heat treatment of enzyme no, reaction time 3 h
- Protocol: Into 20 mM acetate buffer of pH 4.0 was suspended 0.1 g, 0.25 g, 0.5 g, 1.0 g, or 1.5 g of each of various soybean materials (roasted soy flour (manufactured by Fuji Shokuryo K.K.), soymilk (manufactured by Gitoh Shokuhin K.K.), defatted soybean (manufactured by Fuji Seiyu K.K.), concentrated soybean protein (manufactured by Fuji Seiyu K.K.)). The pH of the suspension was measured and the liquid volume was adjusted to 4.5 mL while the pH was adjusted to 4.0 with 1N hydrochloric acid. […]
measured endpoint: Decomposition efficiency: ratio of each glycoside/aglycon within its isoflavone family

INSERT INTO results (structure_string, system, result) VALUES
  ('COc1cc2c(=O)c(-c3ccc(O)cc3)coc2cc1O[C@@H]1O[C@H](CO)[C@@H](O)[C@H](O)[C@H]1O', 'Crude diglycosidase', 'not detected'),
  ('O=c1c(-c2ccc(O)cc2)coc2cc(O[C@@H]3O[C@H](CO)[C@@H](O)[C@H](O)[C@H]3O)cc(O)c12', 'Crude diglycosidase', 'not detected'),
  ('O=C(O)CC(=O)OC[C@H]1O[C@@H](Oc2ccc3c(=O)c(-c4ccc(O)cc4)coc3c2)[C@H](O)[C@@H](O)[C@@H]1O', 'Crude diglycosidase', 'not detected'),
  ('O=c1c(-c2ccc(O)cc2)coc2cc(O[C@@H]3O[C@H](CO)[C@@H](O)[C@H](O)[C@H]3O)ccc12', 'Crude diglycosidase', 'not detected'),
  ('O=C(O)CC(=O)OC[C@H]1O[C@@H](Oc2cc(O)c3c(=O)c(-c4ccc(O)cc4)coc3c2)[C@H](O)[C@@H](O)[C@@H]1O', 'Crude diglycosidase', 'not detected');

====

- System: Crude diglycosidase
- assay protocol: Examination of substrate concentration in the conversion into isoflavone aglycons by diglycosidase using soybean materials;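 further: percent of the isoflavone family total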
- Type: biochemical, Penicillium multicolor IAM7153
- study conditions: roasted soy flour, substrate concentration 20%, heat treatment of enzyme no, reaction time 3 h
measured endpoint: Decomposition efficiency: ratio of each glycoside/aglycon within its isoflavone family

INSERT INTO assay_data (structure_string, result) VALUES
  ('O=c1c(-c2ccc(O)cc2)coc2cc(O[C@@H]3O[C@H](CO)[C@@H](O)[C@H](O)[C@H]3O)cc(O)c12', 'not detected'),
  ('O=c1c(-c2ccc(O)cc2)coc2cc(O[C@@H]3O[C@H](CO)[C@@H](O)[C@H](O)[C@H]3O)ccc12', 'not detected'),
  ('COc1cc2c(=O)c(-c3ccc(O)cc3)coc2cc1O[C@@H]1O[C@H](COC(=O)CC(=O)O)[C@@H](O)[C@H](O)[C@H]1O', 'not detected');
